Could you please report measured IC50 for the items listed next?
System: PRMT5-dependent Symmetric Di-methyl Arginine signal in HCT116 parental cells
ASSAY OVERVIEW: SYM11 In-Cell Western in HCT116 parental cells
Type: cell-based
CONDITIONS: Homo sapiens, HCT-116, 96 h, HCT116 parental cells; 4 days of treatment; SYM11/DRAQ5 ratio as percent of DMSO control; read-out: In-cell-Western (SYM11) IC50 (nM) HCT216 parental
Unit nM implied. Number only.

QUERY: Specify IC50 for Cn1ncc(-c2cc([C@H]3CCCO3)c3c(=O)[nH]nc(CN)c3c2)c1-c1sc2ccccc2c1C#N and stop.
RESULT: 551

QUERY: Specify IC50 for CC(=O)Nc1cc(-c2cnn(C)c2-c2sc3ccccc3c2C#N)cc2c(CN)n[nH]c(=O)c12 and stop.
RESULT: 720

QUERY: Specify IC50 for CCOc1cc(-c2cnn(C)c2-c2c(F)c(C)c3ncc(Cl)cc3c2C#N)cc2c(CN)n[nH]c(=O)c12 (single isomer, unassigned) and stop.
RESULT: 686

QUERY: Specify IC50 for Cc1c(F)c(-c2c(-c3cc(Cl)c4c(=O)[nH]nc(CN)c4c3)cnn2C)c(C#N)c2cc(Cl)cnc12 (single isomer, unassigned) and stop.
RESULT: 176

QUERY: Specify IC50 for COCc1cc(-c2cnn(C)c2-c2sc3ccccc3c2C#N)cc2c(CN)n[nH]c(=O)c12 and stop.
RESULT: 595

QUERY: Specify IC50 for Cn1ncc(-c2cc([C@@H]3CCCO3)c3c(=O)[nH]nc(CN)c3c2)c1-c1sc2ccccc2c1C#N and stop.
RESULT: 330

###

Test system: PRMT5-dependent Symmetric Di-methyl Arginine signal in HCT116 homozygous MTAP Knockout cells
ASSAY OVERVIEW: SYM11 In-Cell Western in HCT116 homozygous MTAP knockout cells
Assay type: cell-based
CONDITIONS: 4 days of treatment, SYM11/DRAQ5 ratio as percent of DMSO control, read-out: In-cell-Western (SYM11) IC50 (nM) HCT116 MTAP_KO
Could you please report measured IC50 for the items listed next?
Unit nM implied. Number only.

QUERY: Specify IC50 for Cc1cc(-c2cnn(C)c2-c2c(C#N)cc3ccccc3c2Cl)cc2c(CN)n[nH]c(=O)c12 (single isomer, unassigned) [Example 16-51] and stop.
RESULT: 6

QUERY: Specify IC50 for Cn1ncc(-c2cc(Cl)c3c(=O)[nH]nc(CN)c3c2)c1-c1c(C#N)cc2ccccc2c1Cl (single isomer, unassigned) [Example 16-63] and stop.
RESULT: 437

QUERY: Specify IC50 for N#Cc1c(OC2CC2)cc(Cl)c(F)c1-c1c(-c2ccc3c(=O)[nH]nc(CN)c3c2)cnn1C(F)(F)F (atropisomer, axis not shown; (M)) [Example 16-120] and stop.
RESULT: 79

QUERY: Specify IC50 for Cc1cc(OC2CC2)c(C#N)c(-c2c(-c3cc(C)c4c(=O)[nH]nc(CN)c4c3)cnn2C)c1F (single isomer, unassigned) [Example 16-44] and stop.
RESULT: 13

QUERY: Specify IC50 for Cn1ncc(-c2cc(Cl)c3c(=O)[nH]nc(CN)c3c2)c1-c1c(F)ccc(OC2CC2)c1C#N (atropisomer, axis not shown; (P)) [Example 16-55] and stop.
RESULT: 57

QUERY: Specify IC50 for Cc1c(F)c(-c2c(-c3cc(C)c4c(=O)[nH]nc(CN)c4c3)cnn2C)c(C#N)c2ccccc12 (single isomer, unassigned) [Example 16-42] and stop.
RESULT: 6
